The values you see were collected from paper PMC11576293.

Tested on: HCT-116
Assay: NCI-60 single-dose screen
Type: cell-based
Conditions: Homo sapiens, single dose 10 µM, '-' = no inhibition, read-out: % Growth Inhibition
Kind request: treat 5% as inclusive, so inhibition at 10 µM at 5% or higher is yes (1), anything lower is no (0).

COc1ccc(-c2cc(-c3ccc(Cl)cc3)nc(SC(C)C)n2)cc1OC [Compound 26] = no (0)
COc1ccc(-c2cc(-c3ccc(Cl)cc3)nc(SCc3ccccc3)n2)cc1 [Compound 14] = no (0)
C=CCSc1nc(-c2ccc(OC)cc2)cc(-c2cccc(OC)c2)n1 [Compound 20] = yes (1)

[Q] Entry CCSc1nc(-c2ccc(Cl)cc2)cc(-c2ccc(OC)cc2)n1 [Compound 10] : is its inhibition at 10 µM no less than 5%?
[A] no (0)

[Q] Test whether the compound COc1ccc(-c2cc(-c3ccc(Cl)cc3)nc(SCc3ccccc3)n2)cc1OC [Compound 28] records inhibition at 10 µM of 5% or higher.
[A] yes (1)

[Q] For this compound, is measured inhibition at 10 µM 5% or higher? C=CCSc1nc(-c2ccc(Cl)cc2)cc(-c2ccc(OC)cc2)n1 [Compound 13]
[A] yes (1)

[Q] Confirm if inhibition at 10 µM reported for the compound COc1ccc(-c2cc(-c3ccc(Cl)cc3)nc(SC)n2)cc1OC [Compound 23] is 5% or above.
[A] yes (1)

[Q] Is inhibition at 10 µM at least 5%? Consider COc1ccc(-c2cc(-c3ccc(Cl)cc3)nc(SC)n2)cc1 [Compound 9]
[A] yes (1)

[Q] Item COc1ccc(-c2cc(-c3cccc(OC)c3)nc(SC)n2)cc1 [Compound 16] with inhibition at 10 µM of 5% or above?
[A] yes (1)

----------
System: KM12
Experiment: NCI-60 single-dose screen
Type: cell-based
Conditions: Homo sapiens, single dose 10 µM, '-' = no inhibition, read-out: % Growth Inhibition
Response key: fulfilled means inhibition at 10 µM >= 6%; not fulfilled means inhibition at 10 µM < 6%.

[Q] Answer whether inhibition at 10 µM of COc1ccc(CSc2nc(-c3ccc(Cl)cc3)cc(-c3ccc(OC)c(OC)c3)n2)cc1 is greater than or equal to 6%.
[A] fulfilled

[Q] Quick check: does COc1ccc(-c2cc(-c3ccc(Cl)cc3)nc(SCc3ccccc3)n2)cc1 have inhibition at 10 µM greater than or equal to 6%?
[A] not fulfilled

----------
System: EKVX
Assay: NCI-60 single-dose screen
Assay type: cell-based
Details: Homo sapiens, single dose 10 µM, '-' = no inhibition, read-out: % Growth Inhibition
Rule: inhibition at 10 µM of 20% or more gives MET; anything lower gives NOT MET.

Worked examples, 5 compounds total:
COc1ccc(-c2cc(-c3ccc(Cl)cc3)nc(SCc3ccccc3)n2)cc1OC [Compound 28] = MET
CCCSc1nc(-c2ccc(Cl)cc2)cc(-c2ccc(OC)c(OC)c2)n1 [Compound 25] = NOT MET
COc1ccc(CSc2nc(-c3ccc(Cl)cc3)cc(-c3ccc(OC)c(OC)c3)n2)cc1 [Compound 29] = MET
COc1ccc(-c2cc(-c3ccc(Cl)cc3)nc(SCc3ccccc3)n2)cc1 [Compound 14] = NOT MET
C=CCSc1nc(-c2ccc(Cl)cc2)cc(-c2ccc(OC)cc2)n1 [Compound 13] = NOT MET

[Q] inhibition at 10 µM >= 20% for COc1ccc(CSc2nc(-c3ccc(Cl)cc3)cc(-c3ccc(OC)cc3)n2)cc1 [Compound 15] ?
[A] NOT MET

[Q] In plain terms: is recorded inhibition at 10 µM at least 20% for COc1ccc(-c2cc(-c3ccc(Cl)cc3)nc(SC(C)C)n2)cc1 [Compound 12] ?
[A] NOT MET

[Q] Would you say COc1ccc(-c2cc(-c3ccc(Cl)cc3)nc(SC)n2)cc1 [Compound 9] shows inhibition at 10 µM at minimum 20%?
[A] NOT MET
